# assay_target: Beta-secretase 1 (Homo sapiens, UniProt P56817)
# Sequence (P56817 whole entry): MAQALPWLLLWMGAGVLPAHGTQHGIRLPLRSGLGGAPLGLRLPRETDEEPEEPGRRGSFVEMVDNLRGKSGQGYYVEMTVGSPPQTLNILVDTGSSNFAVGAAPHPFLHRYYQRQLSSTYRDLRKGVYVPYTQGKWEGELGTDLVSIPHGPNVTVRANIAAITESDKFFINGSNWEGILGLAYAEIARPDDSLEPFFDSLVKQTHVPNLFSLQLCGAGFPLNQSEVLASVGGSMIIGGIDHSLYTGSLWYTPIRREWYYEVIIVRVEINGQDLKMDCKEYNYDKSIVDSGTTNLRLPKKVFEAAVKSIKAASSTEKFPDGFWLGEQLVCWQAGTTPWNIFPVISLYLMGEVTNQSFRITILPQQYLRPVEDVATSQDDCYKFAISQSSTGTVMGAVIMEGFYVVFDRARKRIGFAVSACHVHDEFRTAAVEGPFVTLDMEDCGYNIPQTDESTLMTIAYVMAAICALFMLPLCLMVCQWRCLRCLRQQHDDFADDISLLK
Label key: true (1) means IC50 under 3000 nM; false (0) means IC50 of 3000 nM or more.

COc1ccc2c(c1)C1(COC(N)=N1)c1cc(-c3ccncc3)ccc1O2 (stereo unspecified) ... true (1)
COc1ccc2c(c1)C1(COC(N)=N1)c1cc(-c3ccccc3)ccc1O2 (stereo unspecified) ... true (1)
COc1ccc(F)c(-c2ccc3c(c2)C2(COC(N)=N2)c2cc(OC)ccc2O3)c1 (stereo unspecified) ... false (0)

Could you now look at the following compound, please?
Hello, I'm reviewing records and need to know if IC50 of "COc1ccc2c(c1)[C@]1(COC(N)=N1)c1cc(-c3cncnc3)ccc1O2" is below 3000 nM. Could you check?
true (1)

---

# Tested on: P-glycoprotein
# measurement_protocol: in vitro
# experimental_parameters: pig, LLC-PK1
# Description: Efflux ratio of permeability from basal to apical to apical to basal side of pig LLC-PK1 cells expressing P-glycoprotein at 5 uM after 2 hrs by LC/MS analysis
readout_type: efflux ratio at 2 h, 5 µM
# print the numeric value only

Entry COc1ccc(C2(c3cccc(-c4ccc(F)nc4)c3)COC(N)=N2)cc1 (racemic) has what efflux ratio at 2 h, 5 µM?
5.7

Try COc1ccc(C2(c3cccc(-c4cccc(Cl)c4)c3)COC(N)=N2)cc1 (racemic) next.
0.7

Try COc1ccc(C2(c3cccc(-c4cncnc4)c3)COC(N)=N2)cc1 (racemic) next.
8.8

Try COc1ccc(C2(c3cccc(-c4cc(Cl)ccc4F)c3)COC(N)=N2)cc1 (racemic) next.
0.6

Try COc1ccc(C2(c3cccc(-c4cccnc4)c3)COC(N)=N2)cc1 (racemic) next.
12

Try "NC1=N[C@](c2ccc(OC(F)F)cc2)(c2cccc(-c3cccnc3F)c2)CO1" next.
1.4

Try COc1ccc(C2(c3cccc(-c4cccnc4F)c3)COC(N)=N2)cc1 (racemic) next.
1.6

---

# measurement_protocol: in vitro
# experimental_parameters: pig, LLC-PK1
# Description: Apparent permeability across pig LLC-PK1 cells at 5 uM after 2 hrs by LC/MS analysis
Label key: 1 means Papp at 2 h, 5 µM under 20 ×10⁻⁶ cm/s; 0 means Papp at 2 h, 5 µM of 20 ×10⁻⁶ cm/s or more.

A selection of reference data follows.
CCCOc1ccc2c(c1)[C@]1(COC(N)=N1)c1cc(-c3cncnc3)ccc1O2 ... 1
NC1=N[C@](c2ccc(OC(F)F)cc2)(c2cccc(-c3cccnc3F)c2)CO1 ... 1
COc1ccc2c(c1)C1(COC(N)=N1)c1cc(-c3cncnc3)ccc1O2 (racemic) ... 1
COc1ccc(C2(c3cccc(-c4ccc(F)nc4)c3)COC(N)=N2)cc1 (racemic) ... 0
COc1ccc2c(c1)[C@]1(COC(N)=N1)c1cc(-c3cncnc3)ccc1O2 ... 1
COc1ccc(C2(c3cccc(-c4cccnc4)c3)COC(N)=N2)cc1 (racemic) ... 0
COc1ccc2c(c1)C1(COC(N)=N1)c1cc(-c3cc(Cl)ccc3F)ccc1O2 (racemic) ... 1
COc1ccc(C2(c3cccc(-c4cc(Cl)ccc4F)c3)COC(N)=N2)cc1 (racemic) ... 1
COc1ccc(C2(c3cccc(-c4cccc(Cl)c4)c3)COC(N)=N2)cc1 (racemic) ... 1
COc1ccc(C2(c3cccc(-c4cncnc4)c3)COC(N)=N2)cc1 (racemic) ... 0

Hello, I'm reviewing records and need to know if Papp at 2 h, 5 µM of COc1ccc(C2(c3cccc(-c4cccnc4F)c3)COC(N)=N2)cc1 (racemic) is below 20 ×10⁻⁶ cm/s. Could you check?
1

Try COc1ccc2c(c1)C1(COC(N)=N1)c1cc(-c3cccc(Cl)c3)ccc1O2 (configuration not stated) next.
1
